assay: CaCo-2 permeability (bi-directional); conditions: human, Caco-2, pH 7.4, Mean Papp B2A, HBSS/HBSS; pH 7.4/7.4
Value Type: Papp B→A at 120 min, 10 μM (×10⁻⁶ cm/s)

[[record]]
compound = "Oc1cc(Cl)cc2c1NC(c1ccc(Cl)cc1)C1CC=CC21 (stereo not shown) [Compound 12]"
observed_measurement = 7.53

[[record]]
compound = "O=C(O)c1c(Cl)cc(O)c2c1C1C=CCC1C(c1ccc(Cl)cc1)N2 (stereo not shown) [Compound 13]"
observed_measurement = 2.91

[[record]]
compound = "O=[N+]([O-])c1c(Cl)cc(O)c2c1C1C=CCC1C(c1ccc(Cl)cc1Cl)N2 (stereo not shown) [Compound 8]"
observed_measurement = 7.05

[[record]]
compound = "CC1(C)Cc2cccc(OCC(=O)Nc3nc4ccccc4s3)c2O1 [Compound E25]"
observed_measurement = 4.46

[[record]]
compound = "N#Cc1c(Cl)cc(O)c2c1C1C=CCC1C(c1ccc(Cl)cc1)N2 (stereo not shown) [Compound 14]"
observed_measurement = 2.31

[[record]]
compound = "COc1ncc(C(C)NC2CC(C)(C)NC(C)(C)C2)cc1Cl (stereo not shown) [Compound 3.3]"
observed_measurement = 38.3

[[record]]
compound = "O=[N+]([O-])c1c(Cl)cc(O)c2c1C1C=CCC1C(c1ccc(Cl)cc1)N2 (stereo not shown) [Compound 7]"
observed_measurement = 10.2

[[record]]
compound = "Oc1cc(Cl)cc2c1NC(c1ccccc1)C1CC=CC21 (stereo not shown) [Compound 11]"
observed_measurement = 11.1

[[record]]
compound = "CC(C)C[C@@H](CO)NCc1cc(O)c2cc(F)ccc2n1 [Compound 3.14]"
observed_measurement = 40.6

[[record]]
compound = "Cc1[nH]nc(-c2ccc(O)c(C)c2O)c1-c1nc2ccccc2s1 [Compound E12]"
observed_measurement = 23.2


###

experiment: Microsomal metabolic stability; type: in vitro ADME; conditions: human, pooled liver microsomes, pH 7.4, liver microsomes; read-out: t1/2
Value Type: half-life at 1 µM

[[record]]
compound = "Oc1cc(Cl)cc2c1NC(c1ccc(Cl)cc1)C1CC=CC21 (stereo not shown)"
observed_measurement = "2.5 min"

[[record]]
compound = "Oc1cc(Cl)cc2c1NC(c1ccccc1)C1CC=CC21 (stereo not shown)"
observed_measurement = "2.83 min"

[[record]]
compound = "O=[N+]([O-])c1c(Cl)cc(O)c2c1C1C=CCC1C(c1ccc(Cl)cc1)N2 (stereo not shown)"
observed_measurement = "3.62 min"

[[record]]
compound = "N#Cc1c(Cl)cc(O)c2c1C1C=CCC1C(c1ccc(Cl)cc1)N2 (stereo not shown)"
observed_measurement = "1.64 min"

[[record]]
compound = "Cc1[nH]nc(-c2ccc(O)c(C)c2O)c1-c1nc2ccccc2s1"
observed_measurement = "5.52 min"

[[record]]
compound = "O=C(O)c1c(Cl)cc(O)c2c1C1C=CCC1C(c1ccc(Cl)cc1)N2 (stereo not shown)"
observed_measurement = "83 min"

[[record]]
compound = "O=[N+]([O-])c1c(Cl)cc(O)c2c1C1C=CCC1C(c1ccc(Cl)cc1Cl)N2 (stereo not shown)"
observed_measurement = "3.35 min"

[[record]]
compound = "CC1(C)Cc2cccc(OCC(=O)Nc3nc4ccccc4s3)c2O1"
observed_measurement = "0.552 min"

[[record]]
compound = "COc1ncc(C(C)NC2CC(C)(C)NC(C)(C)C2)cc1Cl (stereo not shown)"
observed_measurement = "3.91 min"

[[record]]
compound = "CC(C)C[C@@H](CO)NCc1cc(O)c2cc(F)ccc2n1"
observed_measurement = "29.1 min"


Value source: paper PMC10060354
